Known Liver, % injected dose/organ of a selection of molecules
protocol-summary: Animal biodistribution (in vivo, i.v. injection)
conditions: rats, 60 min p.i.
reported-property: Liver, % injected dose/organ

[
  {
    "molecule": "CP(C)CCP(C)C.CP(C)CCP(C)C.N#[O+].[99Tc+].[Cl-].[Cl-]",
    "reported-measurement": "3.14 % injected dose/organ"
  },
  {
    "molecule": "O=[N][Tc+][Cl].[C-]#[N+]C(C)(C)C.[C-]#[N+]C(C)(C)C.[C-]#[N+]C(C)(C)C.[C-]#[N+]C(C)(C)C [[^99 Tc(NO)Cl(t-BuCN)4]^+]",
    "reported-measurement": "5.89 % injected dose/organ"
  },
  {
    "molecule": "O=[N][99Tc]([Cl])([Cl])[Cl].c1ccc(-c2ccccn2)nc1 [[^99 Tc(NO)Cl3 (Bipy)]]",
    "reported-measurement": "3.35 % injected dose/organ"
  },
  {
    "molecule": "O=[N][99Tc]1([Cl])([Cl])([Cl])[N]2C=CC=c3ccc4c(c32)[N]1C=CC=4 [[^99 Tc(NO)(1,10 phen)Cl3]°]",
    "reported-measurement": "0.46 % injected dose/organ"
  },
  {
    "molecule": "CC(=O)C=C(C)[O][99Tc-]([Cl])([Cl])([Cl])[N]=O [[^99 Tc(NO)Cl3 (acac)]^-]",
    "reported-measurement": "8.27 % injected dose/organ"
  },
  {
    "molecule": "O=[N][99Tc-]([Cl])([Cl])([Cl])[Cl] [[^99m TcNOCl4]^-]",
    "reported-measurement": "4.59 % injected dose/organ"
  }
]
